Biological target: T1, human CD70, recombinant, N-terminally biotinylated (residues 39-193) (human, UniProt P32970 39-193, N-terminal biotin)
T1 construct: range 39-193; the same entry is used there; also called biotinylated human CD70; CD70 biotin
T1 sequence (looked up): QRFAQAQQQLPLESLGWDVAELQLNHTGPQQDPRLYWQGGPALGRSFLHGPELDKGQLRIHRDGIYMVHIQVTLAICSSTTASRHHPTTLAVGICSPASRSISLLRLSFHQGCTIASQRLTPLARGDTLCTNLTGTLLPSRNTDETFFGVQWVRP
Experiment: CD27 blocking ELISA, 3 µM scFv, anti-His/HRP
experimental_endpoint: anti His/HRP
Numbers only.

Example results:
binder	experimental_endpoint	experimental_value
55-TC4-IX-G04 (scFv, His-tagged) scFv: QVQLLESGGGVVQPGRSLRLSCAASGFTFSSYAMHWVRQAPGKGLEWVAVISYDGSNKYYADSVKGRFTISRDNSKNTLYLQMNSLRAEDTAVYYCARGLGFGSGWYEYVDAFDIWGQGTMVTVSSGGSGGSGGSGGSQSVLTQPASVSGSPGQSITISCTGTSSDVGSYNLVSWYQQHPGKAPKLMIYEVSKRPSGVSNRFSGSKSGNTASLTISGLQAEDEADYYCSSYRSNNTPWVFGGGTKLTVL	anti His/HRP	1.24
39-TC6-IV-B08 (scFv, His-tagged; also called 1885) scFv: QVQLVESGGGVVQPGGSLRLSCAASGFTFSSYAMHWVRQAPGKGLEWVAVISYDGSNKYYADSVKGRFTISRDNSKNTLYLQMNSLRAEDTAVYYCARDGHPYYYGMDVWGQGTTVTVSSGGSGGSGGSGGSQSALTQPASVSGSPGQSITISCTGTSSDVGDYNYVSWYQHHPGKAPKLMIYDVSNRPSGVSNRFSGSKSGNTASLTISGLQAEDEADYYCGSYTGSDTWVFGGGTKVTVL	anti His/HRP	2.97
16-TC4-I-C11 (scFv, His-tagged) scFv: QVQLVQSGAEVKKPGSSVKVSCKASGGTFSSYAISWVRQAPGQGLEWMGWISAYNGNTNYAQKLQGRVTMTTDTSTSTAYMELRSLRSDDTAVYYCARVTPPGWLGNMDVWGKGTTVTVSSGGSGGSGGSGGSSYELMQSPSVSVAPGQTARITCGGRDIGSKSVHWYQQKPGQAPVLVVYDDSDRPSGIPERLSGSNFGNEATLTISRVEAGDEGDYFCQVWDSSTDVVFGGGTKVTVL	anti His/HRP	2.1
56-TC7-VI-H08 (scFv, His-tagged) scFv: QMQLVQSGAEVKKPGASVKVSCKASGYTFTSYYMHWVRQAPGQGLEWMGIINPSGGSTSYAQKFQGRVTMTRDTSTSTAYMELRSLRSDDTAVYYCARGWETNDAFDIWGQGTMVTVSSGGSGGSGGSGGSQSVLTQPPSVSGAPGQKVTISCSGSNSNVGNHYLSWYQHLPGTAPRLLIFDNNKRPSGIPDRFSGSKSGASATLDITGLQTGDEADYFCGTWDSRLNVWVFGGGTKLTVL	anti His/HRP	1.5
1-TC4-I-C10 (scFv, His-tagged; also called 1867) scFv: EVQLVQSGAEVKKPGESLKISCKGSGYSFTSYWIGWVRQMPGKGLEWMGIIYPGDSDTRYSPSFQGQVTISADKSISTAYLQWSSLKASDTAMYYCAISRTESYVMDVWGQGTTVTVSSGGSGGSGGSGGSQSALTQPRSVSGSPGQSVTISCTGTSSDVGGYNYVSWYQQHPGKAPKLMIYDVTNRPSGVPDRFSASKSDNTATLTVSGVQAEDEADYYCSSYAGSHELFGGGTKLTVL	anti His/HRP	2.83
51-TC7-VIII-G06 (scFv, His-tagged) scFv: QVQLLESGGGLVQPGRSLRLSCAASGFTFDDYAMHWVRQAPGKGLEWVSGITWNSGSIGYADSVKGRFTISRDNAKNSLYLQMNSLRAEDTAVYYCAREVAARPFYYYGMDVWGQGTTVTVSSGGSGGSGGSGGSQSVLTQPPSVSVAPGKTARITCGGNNIGSKSVHWYQQKPGQAPVLVVYDDSDRPSGIPERFSGSNSGNTATLTISGTQAMDEADYYCQAWDSSTVFGGGTKLTVL	anti His/HRP	0.676

Could you tell me anti His/HRP for each of these binders? They are listed below.
1. 14-TC4-XIII-A01 (scFv, His-tagged) scFv: QVQLVQSGAEVKKPGASVKVSCKASGYTFTGYYMNWVRQAPGQGLEWMAWINPNTGDTNYAQKFQGRVTMTRDTSINTAYIELSRLTSDDTAVYYCARVGDYYDRSGYYRHDAFDIWGQGTMVTVSSGGSGGSGGSGGSSSELTQDPAVSVALGQTVRITCQGDSLRSYYASWYQQKPGQAPVLVIYGKNNRPSGIPDRFSGSSSGNTASLTITGAQAMDEADYYCQAWDSSTGVVFGGGTKVTVL
2. 38-TC7-V-G06 (scFv, His-tagged) scFv: QMQLVQSGAEVKKPGSSVKVSCKASGGTFSSYAISWVRQAPGQGLEWMGWISAYNGNTNYAQKLQGRVTMTTDTSTSTAYMELRSLRSDDTAVYYCARDDYWGQGTLVTVSSGGSGGSGGSGGSSYELTQPPSVSVAPGKTARITCSGDVLGENYADWYQQKPGQAPELVIYEDSERYPGIPERFSGSTSGNTTTLTISRVLTEDEADYYCLSGDEDNRVFGGGTKLTVL
3. 40-TC7-VI-F11 (scFv, His-tagged) scFv: EVQLVESGGGVVQPGRSLRLSCAASGFTFSSYAMHWVRQAPGKGLEWVAVISYDGSNKYYADSVKGRFTISRDNSKNTLYLQMNSLRAEDTAVYYCARDGYGFDYWGQGTLVTVSSGGSGGSGGSGGSSYELTQSPSVSVAPGQTARITCGGNNIGSKSVHWYQQKPGQAPVLVVYDDSDRPSGIPERFSGSNSGNTATLTISRVEAGDEADYYCQVWDSSTPYVFGTGTKLTVL
4. 52-TC7-VIII-C02 (scFv, His-tagged) scFv: QVQLLESGGGVVQPGRSLRLSCAASGFTFSSYGMHWVRQAPGKGLEWVAVISYDGSNKYYADSVKGRFTISRDNSKNTLYLQMNSLRAEDTAVYYCAKGAYYYGSVSGMDVWGQGTTVTVSSGGSGGSGGSGGSSYELTQPVSVSVALGQTARLTCAGNNIGSKNVHWYQQKPSQAPVLVIYNDNIRPNFGIPERFSGSNSGNTATLTISSAQAGDEADYYCQVWDSSTAEVFGGGTKLTVL

1: 1.74; 2: 1.02; 3: 1.84; 4: 1.56
